For each entry below, report its pIC50 value.
system: protein kinase D1 (PKD1) (Homo sapiens)
Construct: This assay is performed with full length wild-type enzyme that is expressed and purified from Sf9 insect cells; made in house; host or cells: Sf9 insect cells
Sequence (Q15139 1-912): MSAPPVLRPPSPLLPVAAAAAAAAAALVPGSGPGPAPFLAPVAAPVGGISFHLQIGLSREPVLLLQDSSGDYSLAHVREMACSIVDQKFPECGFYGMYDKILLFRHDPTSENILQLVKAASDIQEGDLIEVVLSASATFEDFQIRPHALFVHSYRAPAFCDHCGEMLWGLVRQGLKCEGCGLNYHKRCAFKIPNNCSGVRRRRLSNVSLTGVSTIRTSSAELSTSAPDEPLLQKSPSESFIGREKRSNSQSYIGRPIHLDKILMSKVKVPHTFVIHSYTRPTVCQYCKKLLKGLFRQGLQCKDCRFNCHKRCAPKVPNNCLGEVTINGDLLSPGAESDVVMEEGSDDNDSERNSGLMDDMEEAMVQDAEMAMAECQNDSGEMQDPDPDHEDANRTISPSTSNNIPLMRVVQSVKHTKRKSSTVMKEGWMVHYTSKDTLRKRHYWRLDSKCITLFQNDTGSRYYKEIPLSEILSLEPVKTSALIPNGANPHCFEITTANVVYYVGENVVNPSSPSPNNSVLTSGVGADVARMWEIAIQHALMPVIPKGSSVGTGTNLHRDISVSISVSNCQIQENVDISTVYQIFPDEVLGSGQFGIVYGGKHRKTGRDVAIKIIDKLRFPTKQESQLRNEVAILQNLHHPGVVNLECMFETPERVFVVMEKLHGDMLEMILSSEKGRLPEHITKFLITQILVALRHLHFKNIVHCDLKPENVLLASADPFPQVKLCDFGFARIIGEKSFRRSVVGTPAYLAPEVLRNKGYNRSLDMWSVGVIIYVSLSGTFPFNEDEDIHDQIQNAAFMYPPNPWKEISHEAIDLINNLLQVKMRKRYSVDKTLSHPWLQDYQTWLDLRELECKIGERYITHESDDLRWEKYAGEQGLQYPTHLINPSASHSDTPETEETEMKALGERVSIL
measurement protocol: PKD1 TR-FRET (LANCE) kinase assay
Assay type: biochemical
condition summary: full length wild-type enzyme, 20 μM ATP, syntide-2 substrate; read-out: Inhibitory Activity PKD1
Friendly reminder that pIC50 comes from taking -log10 of the concentration in mol/L.

GET /values?readout=pIC50&item= Nc1cc(-c2ccnc(NC3CCCCC3)c2)nc(N2CCNCC2)c1 8.00

GET /values?readout=pIC50&item= O=C1NCc2c1cc(-c1ccnc(NC3CCCCC3)c1)nc2N1CCn2cnnc2C1 7.25

GET /values?readout=pIC50&item= CS(=O)(=O)c1cc(-c2ccnc(NC3CCCCC3)c2)nc(N2CCNCC2)c1 7.20

GET /values?readout=pIC50&item= Fc1ccc(Nc2cc(-c3ccnc(NC4CCCCC4)c3)nc(N3CCNCC3)c2)cc1 6.74

GET /values?readout=pIC50&item= O=[N+]([O-])c1cc(-c2ccnc(NC3CCCCC3)c2)nc(N2CCNCC2)c1 8.40

GET /values?readout=pIC50&item= FC(F)(F)c1cc(-c2ccnc(NC3CCCCC3)c2)nc(N2CCNCC2)c1 7.70

GET /values?readout=pIC50&item= N#CCNC(=O)c1ccc(-c2ccnc(NC3CCCCC3)c2)nc1N1CCNCC1 7.22

GET /values?readout=pIC50&item= NC(=O)c1cc(-c2ccnc(NC3CCCCC3)c2)nc(N2CCN3CCC[C@@H]3C2)c1 7.46

GET /values?readout=pIC50&item= C[C@@H]1CN(c2cc(C(N)=O)cc(-c3ccnc(NC4CCCCC4)c3)n2)CCN1 8.22

GET /values?readout=pIC50&item= COC(=O)c1ccc(-c2ccnc(NC3CCCCC3)c2)nc1N1CCNCC1 7.08

====

For each entry below, report its pIC50 value.
system: protein kinase D1 (PKD1) (Homo sapiens)
Construct: This assay is performed with full length wild-type enzyme that is expressed and purified from Sf9 insect cells
Sequence (Q15139 1-912): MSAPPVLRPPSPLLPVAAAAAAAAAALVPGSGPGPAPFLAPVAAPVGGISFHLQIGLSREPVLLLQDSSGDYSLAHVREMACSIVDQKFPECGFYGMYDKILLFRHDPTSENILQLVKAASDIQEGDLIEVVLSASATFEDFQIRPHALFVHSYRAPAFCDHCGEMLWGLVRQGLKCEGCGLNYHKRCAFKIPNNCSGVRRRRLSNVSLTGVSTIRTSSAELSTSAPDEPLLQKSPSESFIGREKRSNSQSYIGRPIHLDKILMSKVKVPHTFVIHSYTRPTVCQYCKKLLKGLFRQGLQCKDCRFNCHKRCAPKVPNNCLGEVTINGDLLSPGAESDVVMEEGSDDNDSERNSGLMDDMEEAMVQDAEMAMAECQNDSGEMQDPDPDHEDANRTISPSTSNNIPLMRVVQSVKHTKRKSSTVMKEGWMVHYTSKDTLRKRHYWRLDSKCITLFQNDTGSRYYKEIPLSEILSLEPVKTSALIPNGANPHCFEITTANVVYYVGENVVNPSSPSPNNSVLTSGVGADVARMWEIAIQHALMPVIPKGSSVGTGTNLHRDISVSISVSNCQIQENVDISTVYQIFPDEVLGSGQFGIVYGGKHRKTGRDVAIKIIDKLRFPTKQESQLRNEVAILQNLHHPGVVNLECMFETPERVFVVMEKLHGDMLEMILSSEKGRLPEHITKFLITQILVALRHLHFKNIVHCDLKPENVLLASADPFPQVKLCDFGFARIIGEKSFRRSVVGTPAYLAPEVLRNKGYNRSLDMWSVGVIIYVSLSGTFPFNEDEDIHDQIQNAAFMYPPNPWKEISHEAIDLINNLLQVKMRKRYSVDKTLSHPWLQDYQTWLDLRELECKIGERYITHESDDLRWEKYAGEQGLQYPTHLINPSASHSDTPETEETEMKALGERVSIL
measurement protocol: PKD1 TR-FRET (LANCE) kinase assay
condition summary: full length wild-type enzyme, 20 μM ATP, syntide-2 substrate; read-out: Inhibitory Activity PKD1
Source text: The assay to measure protein kinase D1 (PKD1) activity is a time-resolved fluorescence resonance transfer (TR-FRET) assay using PerkinElmer's LANCE™ technology. In this case, a biotinylated syntide-2 peptide is used as the substrate in this reaction. Phosphorylation of the syntide-2 substrate is detected by a specific antibody that recognizes the phosphorylated peptide. A second fluorophore, APC, is conjugated to streptavidin that binds the biotinylated syntide-2 peptide. […]
Friendly reminder that pIC50 comes from taking -log10 of the concentration in mol/L.

GET /values?readout=pIC50&item= NC(=O)c1cc(-c2ccnc(NCc3ccccc3Cl)c2)nc(N2CCNCC2)c1 7.60

GET /values?readout=pIC50&item= Cn1ccc(Nc2cc(-c3cc(C#N)cc(N4CCNCC4)n3)ccn2)n1 8.10

GET /values?readout=pIC50&item= c1cc(-c2cc(-c3nnco3)cc(N3CCNCC3)n2)cc(NC2CCCCC2)n1 7.92

GET /values?readout=pIC50&item= NC(=O)c1cc(-c2ccnc(NCCc3ccc(O)cc3)c2)nc(N2CCNCC2)c1 8.70

====

system: protein kinase D2 (PKD2) (Homo sapiens, UniProt Q9BZL6)
Construct: This assay is performed with full length wild-type enzyme purchase from Invitrogen
Sequence (Q9BZL6 1-878): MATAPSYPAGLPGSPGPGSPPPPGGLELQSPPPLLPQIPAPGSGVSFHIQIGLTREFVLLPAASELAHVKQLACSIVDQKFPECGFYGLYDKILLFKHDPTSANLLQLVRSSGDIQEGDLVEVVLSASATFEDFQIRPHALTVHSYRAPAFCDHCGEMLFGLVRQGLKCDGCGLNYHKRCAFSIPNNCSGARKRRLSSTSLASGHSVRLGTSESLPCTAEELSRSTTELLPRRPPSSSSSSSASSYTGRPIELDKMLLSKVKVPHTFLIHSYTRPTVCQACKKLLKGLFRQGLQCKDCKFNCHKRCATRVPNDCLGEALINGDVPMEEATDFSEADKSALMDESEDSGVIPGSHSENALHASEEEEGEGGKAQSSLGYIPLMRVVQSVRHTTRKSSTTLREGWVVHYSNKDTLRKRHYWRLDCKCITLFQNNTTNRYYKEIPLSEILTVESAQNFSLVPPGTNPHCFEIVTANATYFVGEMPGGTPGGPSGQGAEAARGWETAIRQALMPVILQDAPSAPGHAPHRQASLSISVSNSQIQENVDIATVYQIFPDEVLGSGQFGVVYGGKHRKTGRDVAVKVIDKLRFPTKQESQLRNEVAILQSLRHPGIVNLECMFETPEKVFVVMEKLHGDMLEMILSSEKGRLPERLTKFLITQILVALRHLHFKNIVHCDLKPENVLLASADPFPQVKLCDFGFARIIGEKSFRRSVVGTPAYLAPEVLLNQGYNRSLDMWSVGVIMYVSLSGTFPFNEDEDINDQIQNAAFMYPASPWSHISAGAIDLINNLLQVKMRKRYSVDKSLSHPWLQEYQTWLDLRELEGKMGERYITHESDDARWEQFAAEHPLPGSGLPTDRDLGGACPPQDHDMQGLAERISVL
measurement protocol: PKD2 TR-FRET (LANCE) kinase assay
condition summary: full length wild-type enzyme, 20 μM ATP, syntide-2 substrate; read-out: Inhibitory Activity PKD2
Response field label: string, one of Met (IC50 strictly below 200 nM) or Not met.

# TODO verify IC50 < 200 nM strictly for this molecule: C[C@@H]1CN(c2cc(C(N)=O)cc(-c3ccnc(NC4CCCCC4)c3)n2)CCN1 Met

# TODO verify IC50 < 200 nM strictly for this molecule: CC(C)Nc1cc(-c2cc(-c3cn[nH]c3)cc(N3CCNCC3)n2)ccn1 Met

# TODO verify IC50 < 200 nM strictly for this molecule: NC(=O)c1cc(-c2ccnc(NCc3ccccc3Cl)c2)nc(N2CCNCC2)c1 Not met

# TODO verify IC50 < 200 nM strictly for this molecule: CS(=O)(=O)c1cc(-c2ccnc(NC3CCCCC3)c2)nc(N2CCNCC2)c1 Not met

# TODO verify IC50 < 200 nM strictly for this molecule: O=C1NCc2c1cc(-c1ccnc(NC3CCCCC3)c1)nc2N1CCn2cnnc2C1 Not met

# TODO verify IC50 < 200 nM strictly for this molecule: N#CCNC(=O)c1ccc(-c2ccnc(NC3CCCCC3)c2)nc1N1CCNCC1 Not met

# TODO verify IC50 < 200 nM strictly for this molecule: COC(=O)c1ccc(-c2ccnc(NC3CCCCC3)c2)nc1N1CCNCC1 Not met

# TODO verify IC50 < 200 nM strictly for this molecule: O=[N+]([O-])c1cc(-c2ccnc(NC3CCCCC3)c2)nc(N2CCNCC2)c1 Met

# TODO verify IC50 < 200 nM strictly for this molecule: Nc1cc(-c2ccnc(NC3CCCCC3)c2)nc(N2CCNCC2)c1 Not met

# TODO verify IC50 < 200 nM strictly for this molecule: c1cc(-c2cc(-c3nnco3)cc(N3CCNCC3)n2)cc(NC2CCCCC2)n1 Not met
